# Test system: BT-549
# assay-comment: NCI tumour cell line growth inhibition, 48 h
Active and inactive are the calls of the source. Rule as the data show it: active = GI50 up to about 1.1 µM and inactive = higher.
Could you please report measured GI50 for the items listed next?

Task: Quick one: GI50 for O=C(OCC1CC(C2(O)CCCCC2)C(=O)O1)c1ccccc1 (stereo not drawn) ?
Output: > 100 µM (inactive)

Task: Endpoint output: GI50 of C/C(=N\Nc1nc2ccccc2s1)c1ccc2ccccc2n1 . Value?
Output: > 100 µM (inactive)

Task: What value of GI50 has been reported for the following compound? CC1OC(n2cc(F)c(=O)[nH]c2=O)C(O[Si](C)(C)C(C)(C)C)C1O[Si](C)(C)C(C)(C)C (stereo not drawn)
Output: 13.4 µM (inactive)
